# Tested target: Vasoactive intestinal polypeptide receptor 2 (Homo sapiens)
# Method description: Antagonist activity at recombinant human N-terminal signal peptide/FLAG epitope-tagged VIPR2 expressed in HEK293 cells co-expressing CAMYEL assessed as inhibition of VIP-induced cAMP accumulation at 5 uM preincubated for 5 mins with luciferin, coelenterazine H followed by VIP addition measured after 5 mins by BRET assay relative to control
# Assay type: functional, cell-based
Assay readout: inhibition (%)

{"Molecule": "CS(=O)(=O)NC[C@@H](O)C[C@@H](Cc1ccccc1)C(=O)N[C@H]1c2ccccc2C[C@H]1O", "Endpoint value": 18.5}
{"Molecule": "C#CCNC(=O)[C@H](Cc1ccccc1)C[C@H](O)CNS(=O)(=O)c1ccc([N+](=O)[O-])cc1", "Endpoint value": 7.3}
{"Molecule": "CC(=O)Nc1ccc(S(=O)(=O)NC[C@H](C[C@@H](Cc2ccccc2)C(=O)N[C@H]2c3ccccc3C[C@H]2O)OC(C)=O)cc1", "Endpoint value": 3}
{"Molecule": "CNc1ccc(S(=O)(=O)NC[C@@H](O)C[C@@H](Cc2ccccc2)C(=O)N[C@H]2c3ccccc3C[C@H]2O)cc1", "Endpoint value": -7.3}
{"Molecule": "C[C@H](CC(C)(C)C)NC(=O)[C@@H](Cc1ccccc1)C[C@H](O)CNS(=O)(=O)c1ccc([N+](=O)[O-])cc1", "Endpoint value": 7.4}

I: CC(C)CS(=O)(=O)NC[C@@H](O)C[C@@H](Cc1ccccc1)C(=O)N[C@H]1c2ccccc2C[C@H]1O
II: O=C(NCCc1cccc(Cl)c1)[C@H](Cc1ccccc1)C[C@H](O)CNS(=O)(=O)c1ccc([N+](=O)[O-])cc1
III: CCNC(=O)[C@H](Cc1ccccc1)C[C@H](O)CNS(=O)(=O)c1ccc([N+](=O)[O-])cc1
IV: O=C([C@@H](Cc1ccccc1)C[C@H](O)CNS(=O)(=O)c1ccc([N+](=O)[O-])cc1)N1CCOCC1
Highest inhibition first, then in falling order down to the smallest. Output spec: a listing of the labels in the requested order.
I, II, IV, III
(I: 22.2%, II: 7.8%, IV: 3%, III: -6.2%)

a: O=C(NC[C@@H](O)C[C@@H](Cc1ccccc1)C(=O)N[C@H]1c2ccccc2C[C@H]1O)c1cccnc1
b: NC(=O)[C@@H](Cc1ccccc1)C[C@H](O)CNS(=O)(=O)c1ccc([N+](=O)[O-])cc1
c: O=C(O)c1ccc(S(=O)(=O)NC[C@@H](O)C[C@@H](Cc2ccccc2)C(=O)N[C@H]2c3ccccc3C[C@H]2O)cc1
# desc sort on inhibition across 3 molecules Order the labels as requested and give them as your answer.
c, a, b
(c: 26%, a: 16.4%, b: 9.7%)

* * *

# Tested target: Vasoactive intestinal polypeptide receptor 2 (Homo sapiens) (UniProt P41587)
# Sequence (whole entry): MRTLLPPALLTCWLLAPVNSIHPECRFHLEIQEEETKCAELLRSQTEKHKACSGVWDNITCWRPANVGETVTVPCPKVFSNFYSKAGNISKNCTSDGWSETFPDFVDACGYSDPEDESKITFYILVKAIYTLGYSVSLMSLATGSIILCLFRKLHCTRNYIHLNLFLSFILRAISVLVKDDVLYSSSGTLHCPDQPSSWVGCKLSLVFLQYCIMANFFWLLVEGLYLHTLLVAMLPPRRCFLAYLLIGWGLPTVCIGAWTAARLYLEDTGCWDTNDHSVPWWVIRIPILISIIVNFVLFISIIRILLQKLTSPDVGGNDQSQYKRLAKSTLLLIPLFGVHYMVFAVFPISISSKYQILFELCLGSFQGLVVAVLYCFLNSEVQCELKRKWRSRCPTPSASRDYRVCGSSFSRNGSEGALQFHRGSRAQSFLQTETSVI
# Method description: Antagonist activity at recombinant human N-terminal signal peptide/FLAG epitope-tagged Rluc8-fused VIPR2 expressed in HEK293 cells assessed as inhibition of VIP-induced human mVenus-beta-arrestin2 binding at 5 uM preincubated for 5 mins with luciferin, coelenterazine H followed by VIP addition measured after 5 mins by BRET assay relative to control
# Assay type: cell-based
Assay readout: inhibition (%)

a: Cc1ccc(S(=O)(=O)NC[C@@H](O)C[C@@H](Cc2ccccc2)C(=O)N[C@H]2c3ccccc3C[C@H]2O)cc1
b: O=C(NC[C@@H](O)C[C@@H](Cc1ccccc1)C(=O)N[C@H]1c2ccccc2C[C@H]1O)c1cccc(Br)c1
c: O=C(NC[C@@H](O)C[C@@H](Cc1ccccc1)C(=O)N[C@H]1c2ccccc2C[C@H]1O)C1CCCCCC1
Rank by inhibition (largest to smallest). Provide the labels, sequenced as the question asks.
a, c, b

* * *

# Tested target: Vasoactive intestinal polypeptide receptor 2 (Homo sapiens) (UniProt P41587)
# Method description: Antagonist activity at recombinant human N-terminal signal peptide/FLAG epitope-tagged Rluc8-fused VIPR2 expressed in HEK293 cells assessed as inhibition of VIP-induced human mVenus-beta-arrestin2 binding at 1 uM preincubated for 5 mins with luciferin, coelenterazine H followed by VIP addition measured after 5 mins by BRET assay relative to control
# Type: cell-based
Assay readout: inhibition (%)

Would you please look over these solved cases?
{"Smiles input": "O=C(NC[C@@H](O)C[C@@H](Cc1ccccc1)C(=O)N[C@H]1c2ccccc2C[C@H]1O)c1ccco1", "inhibition [%]": 27.7}
{"Smiles input": "COc1cc(C(=O)NC[C@@H](O)C[C@@H](Cc2ccccc2)C(=O)N[C@H]2c3ccccc3C[C@H]2O)cc(OC)c1OC", "inhibition [%]": 37.2}
{"Smiles input": "O=C(NCCc1cccc(Cl)c1)[C@H](Cc1ccccc1)C[C@H](O)CNS(=O)(=O)c1ccc([N+](=O)[O-])cc1", "inhibition [%]": -7.8}

a: O=C(NN1CCCCC1)[C@@H](Cc1ccccc1)C[C@H](O)CNS(=O)(=O)c1ccc([N+](=O)[O-])cc1
b: O=C(N[C@H]1c2ccccc2C[C@H]1O)[C@H](Cc1ccccc1)C[C@H](O)CNS(=O)(=O)c1ccc(C(F)(F)F)cc1
c: O=C(NC[C@@H](O)C[C@@H](Cc1ccccc1)C(=O)N[C@H]1c2ccccc2C[C@H]1O)c1cccc(Br)c1
d: C[C@H](CC(C)(C)C)NC(=O)[C@@H](Cc1ccccc1)C[C@H](O)CNS(=O)(=O)c1ccc([N+](=O)[O-])cc1
Ordering criterion: inhibition; begin with the maximum. Write the labels in rank order as requested.
b, d, c, a

I: CCN(CC)C(=O)[C@@H](Cc1ccccc1)C[C@H](O)CNS(=O)(=O)c1ccc([N+](=O)[O-])cc1
II: CC(C)(C)c1ccc(C(=O)NC[C@@H](O)C[C@@H](Cc2ccccc2)C(=O)N[C@H]2c3ccccc3C[C@H]2O)cc1
Just tell me: smaller inhibition value, I or II ? Give the label of your selection.
I
(I: 1.2%, II: 11.3%)

I: O=C(NC1CCCCCC1)[C@H](Cc1ccccc1)C[C@H](O)CNS(=O)(=O)c1ccc([N+](=O)[O-])cc1
II: O=C(Cc1cccc(Cl)c1)NC[C@@H](O)C[C@@H](Cc1ccccc1)C(=O)N[C@H]1c2ccccc2C[C@H]1O
III: O=C([C@H](Cc1ccccc1)C[C@H](O)CNS(=O)(=O)c1ccc([N+](=O)[O-])cc1)N1CCOCC1
Let's sort these by inhibition, smallest first. Go ahead? A ranking is expressed here by listing the labels in the requested order.
I, III, II

* * *

# Tested target: UniProtKB P41587
# Method description: Antagonist activity at recombinant human N-terminal signal peptide/FLAG epitope-tagged VIPR2 expressed in HEK293 cells co-expressing CAMYEL assessed as inhibition of VIP-induced cAMP accumulation at 1 uM preincubated for 5 mins with luciferin, coelenterazine H followed by VIP addition measured after 5 mins by BRET assay relative to control
# Assay type: functional, cell-based
Assay readout: inhibition (%)

As a guide, the following entries are already answered.
{"Compound": "O=C(N[C@H]1c2ccccc2C[C@H]1O)[C@H](Cc1ccccc1)C[C@H](O)CNS(=O)(=O)c1ccc(C(=O)N2CCOCC2)cc1", "inhibition, %": 0.1}
{"Compound": "CC(=O)Nc1ccc(S(=O)(=O)NC[C@@H](O)C[C@@H](Cc2ccccc2)C(=O)N[C@H]2c3ccccc3C[C@H]2O)cc1", "inhibition, %": 19.1}
{"Compound": "CC1CCC(NC(=O)[C@H](Cc2ccccc2)C[C@H](O)CNS(=O)(=O)c2ccc([N+](=O)[O-])cc2)CC1 (some centres not stated)", "inhibition, %": -2.5}

A: CCCCNC(=O)[C@H](Cc1ccccc1)C[C@H](O)CNS(=O)(=O)c1ccc([N+](=O)[O-])cc1
B: CCNC(=O)[C@H](Cc1ccccc1)C[C@H](O)CNS(=O)(=O)c1ccc([N+](=O)[O-])cc1
Name the one with the greater inhibition value, either A or B as given. Let me know the label of the one you choose.
A

* * *

# Tested target: Vasoactive intestinal polypeptide receptor 2 (Homo sapiens) (UniProt P41587)
# Method description: Antagonist activity at recombinant human N-terminal signal peptide/FLAG epitope-tagged VIPR2 expressed in HEK293 cells co-expressing CAMYEL assessed as inhibition of VIP-induced cAMP accumulation at 0.5 uM preincubated for 5 mins with luciferin, coelenterazine H followed by VIP addition measured after 5 mins by BRET assay relative to control
# Format: functional, cell-based
Assay readout: inhibition (%)

Consider the following illustrative entries.
{"Compound": "CC(C)C(=O)NC[C@@H](O)C[C@@H](Cc1ccccc1)C(=O)N[C@H]1c2ccccc2C[C@H]1O", "inhibition (%)": 0.7}
{"Compound": "O=C(NC1CCCc2ccccc21)[C@@H](Cc1ccccc1)C[C@H](O)CNS(=O)(=O)c1ccc([N+](=O)[O-])cc1 (stereo partly specified)", "inhibition (%)": 5.1}
{"Compound": "O=C(NC[C@@H](O)C[C@@H](Cc1ccccc1)C(=O)N[C@H]1c2ccccc2C[C@H]1O)c1ccccc1[N+](=O)[O-]", "inhibition (%)": 17.6}
{"Compound": "Nc1ccc(S(=O)(=O)NC[C@@H](O)C[C@@H](Cc2ccccc2)C(=O)N[C@H]2c3ccccc3C[C@H]2O)cc1", "inhibition (%)": 8.4}
{"Compound": "NC(=O)[C@H](Cc1ccccc1)C[C@H](O)CNS(=O)(=O)c1ccc([N+](=O)[O-])cc1", "inhibition (%)": 6.7}
{"Compound": "CNC(=O)[C@H](Cc1ccccc1)C[C@H](O)CNS(=O)(=O)c1ccc([N+](=O)[O-])cc1", "inhibition (%)": 7}
{"Compound": "C[C@H](CC(C)(C)C)NC(=O)[C@H](Cc1ccccc1)C[C@H](O)CNS(=O)(=O)c1ccc([N+](=O)[O-])cc1", "inhibition (%)": -7.9}
{"Compound": "C#CCNC(=O)[C@@H](Cc1ccccc1)C[C@H](O)CNS(=O)(=O)c1ccc([N+](=O)[O-])cc1", "inhibition (%)": 3.1}

I: O=C(NC1CCCCCC1)[C@@H](Cc1ccccc1)C[C@H](O)CNS(=O)(=O)c1ccc([N+](=O)[O-])cc1
II: CCN(CC)C(=O)[C@H](Cc1ccccc1)C[C@H](O)CNS(=O)(=O)c1ccc([N+](=O)[O-])cc1
III: CCC(=O)Nc1ccc(S(=O)(=O)NC[C@@H](O)C[C@@H](Cc2ccccc2)C(=O)N[C@H]2c3ccccc3C[C@H]2O)cc1
IV: CCCCNC(=O)[C@H](Cc1ccccc1)C[C@H](O)CNS(=O)(=O)c1ccc([N+](=O)[O-])cc1
Place the items in sequence of falling inhibition. State the ranking by listing the labels in the requested order.
I, IV, III, II
(I: 15.5%, IV: 0.9%, III: 0.6%, II: -8.1%)

a: CC(C)Nc1ccc(S(=O)(=O)NC[C@@H](O)C[C@@H](Cc2ccccc2)C(=O)N[C@H]2c3ccccc3C[C@H]2O)cc1
b: O=C(CCCCBr)NC[C@@H](O)C[C@@H](Cc1ccccc1)C(=O)N[C@H]1c2ccccc2C[C@H]1O
Select the item with the higher value of inhibition from the options a and b listed. Returns: label corresponding to the selected item.
a
(a: 17.2%, b: 11.7%)

P: O=C(NC[C@@H](O)C[C@@H](Cc1ccccc1)C(=O)N[C@H]1c2ccccc2C[C@H]1O)C1CCCCCC1
Q: O=C(NC1Cc2ccccc2C1)[C@H](Cc1ccccc1)C[C@H](O)CNS(=O)(=O)c1ccc([N+](=O)[O-])cc1
R: CCCCCNc1ccc(S(=O)(=O)NC[C@@H](O)C[C@@H](Cc2ccccc2)C(=O)N[C@H]2c3ccccc3C[C@H]2O)cc1
S: O=C(NCCc1cccc(Cl)c1)[C@H](Cc1ccccc1)C[C@H](O)CNS(=O)(=O)c1ccc([N+](=O)[O-])cc1
Please produce an ascending ranking of these compounds based on inhibition. Please respond by ranking the labels in the order requested.
S, Q, R, P
(S: -5.5%, Q: 5.7%, R: 10.8%, P: 18.4%)

A: O=C(NC1CCCC1)c1ccc(S(=O)(=O)NC[C@@H](O)C[C@@H](Cc2ccccc2)C(=O)N[C@H]2c3ccccc3C[C@H]2O)cc1
B: CN(C)c1ccc(S(=O)(=O)NC[C@@H](O)C[C@@H](Cc2ccccc2)C(=O)N[C@H]2c3ccccc3C[C@H]2O)cc1
Field: lower recorded inhibition (choose A or B ) Your answer should be the label attached to the chosen record.
B
